The molecules listed here are annotated with their LD50 at 504 h.
- experimental-details: Acute toxicity, LD50 after three weeks observation
- Format: in vivo, mice (CDF1, female)
- condition-parameters: mouse, in vivo, sc; subcutaneous administration; CDF1 mice; three weeks observation
result-type: LD50 at 504 h (mg/kg)

| molecule | value-units | result-operator | quantitative-readout |
| --- | --- | --- | --- |
| O=c1[nH]cc(F)c(=O)[nH]1 | mg/kg | = | 175 |
| Cc1c(C)c2c(c(C)c1OC(=O)n1cc(F)c(=O)[nH]c1=O)CCC(C)(CCCC(C)CCCC(C)CCCC(C)C)O2 (racemic) | mg/kg | > | 4000 |
